B1: library; numbered along this chain (parent)
chain: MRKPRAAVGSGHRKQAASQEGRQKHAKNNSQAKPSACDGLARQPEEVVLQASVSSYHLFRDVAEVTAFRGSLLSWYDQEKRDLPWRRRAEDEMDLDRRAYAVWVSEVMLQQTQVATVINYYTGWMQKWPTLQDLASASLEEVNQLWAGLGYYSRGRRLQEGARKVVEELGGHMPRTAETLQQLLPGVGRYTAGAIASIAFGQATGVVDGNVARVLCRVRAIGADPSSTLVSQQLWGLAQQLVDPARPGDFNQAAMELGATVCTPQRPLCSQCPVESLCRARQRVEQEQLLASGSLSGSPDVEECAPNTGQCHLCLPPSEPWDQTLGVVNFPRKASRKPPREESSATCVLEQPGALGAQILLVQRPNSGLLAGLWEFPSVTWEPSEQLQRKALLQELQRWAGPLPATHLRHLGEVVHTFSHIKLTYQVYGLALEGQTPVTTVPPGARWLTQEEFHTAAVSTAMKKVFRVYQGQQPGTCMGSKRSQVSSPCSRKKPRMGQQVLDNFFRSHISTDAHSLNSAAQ

- Variants of: B1
- test-protocol: 8OG:A repair function score (normalized; synonymous = 0, nonsense = -1) (normalized log-likelihood score); higher = more repair activity (WT-like);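 further: cells sorted at 72 h after reporter transfection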
- test-conditions: with 8OG:A DNA repair reporter (GFP) in HEK-293 MUTYH KO cells
Outcome: Satisfied for 8OG:A repair function score of at least -0.1; Not satisfied for anything lower.

T228A
Satisfied

Here's the next entry for you.
Exercise: Assess whether reported 8OG:A repair function score for G412H sits at -0.1 or higher.
Solution: Not satisfied

These entries and their values trace back to the supplement of paper PMC11908140.
